Target: Tyrosine-protein phosphatase non-receptor type 1 (Homo sapiens, UniProt P18031)
Sequence (P18031 whole entry): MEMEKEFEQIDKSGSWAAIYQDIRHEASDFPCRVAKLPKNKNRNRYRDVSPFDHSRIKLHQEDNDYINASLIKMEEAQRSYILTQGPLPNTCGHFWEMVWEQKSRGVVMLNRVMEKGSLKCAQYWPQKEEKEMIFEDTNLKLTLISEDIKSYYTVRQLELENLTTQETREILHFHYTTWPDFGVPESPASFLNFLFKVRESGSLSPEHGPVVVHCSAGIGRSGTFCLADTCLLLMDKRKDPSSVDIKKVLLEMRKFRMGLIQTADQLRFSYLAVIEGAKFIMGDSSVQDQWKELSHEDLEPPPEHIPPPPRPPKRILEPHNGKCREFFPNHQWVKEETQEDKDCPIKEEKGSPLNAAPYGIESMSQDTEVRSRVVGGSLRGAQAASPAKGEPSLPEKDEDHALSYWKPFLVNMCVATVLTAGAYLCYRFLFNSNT
Assay: Inhibition of full length recombinant human PTP1B using pNPP as substrate by spectrophotometric method
Please go through the items and note down their IC50.
A number alone suffices; assume µM.

Give the measured IC50 of O=C(O)c1ccc(CN2C(=O)/C(=C/c3cccc(OCCc4ccccc4)c3)S/C2=N\c2ccc(F)cc2)cc1 . 14.5

Requested field: IC50. Item: O=C(O)c1ccc(CN2C(=O)/C(=C/c3ccc(Oc4ccccc4)cc3)SC2=S)cc1 10.6

For the molecule shown here, O=C(O)c1ccc(CN2C(=O)/C(=C/c3cccc(Oc4ccccc4)c3)SC2=S)cc1 , give the reported IC50. 7.1

Please report the recorded IC50 for O=C(O)c1ccc(CN2C(=O)/C(=C/c3ccc(OCCc4ccccc4)cc3)S/C2=N\c2ccc(F)cc2)cc1 . 1.5

What value of IC50 has been reported for the following molecule? O=C(O)c1ccc(CN2C(=O)/C(=C/c3ccc(OCCc4ccccc4)cc3)SC2=S)cc1 3.5

For the molecule shown here, O=C(O)c1ccc(CN2C(=O)/C(=C/c3cccc(OCc4ccccc4)c3)S/C2=N\c2ccc(F)cc2)cc1 , give the reported IC50. 4.2

Dear colleague, I am looking for the recorded IC50 of the following molecule: O=C(O)c1ccc(CN2C(=O)/C(=C/c3ccc(OCc4ccccc4)cc3)SC2=S)cc1 5

I'd like to know its IC50. The molecule in question is O=C(O)c1ccc(CN2C(=O)/C(=C/c3cccc(OCc4ccccc4)c3)SC2=S)cc1 5.7

Query: IC50; subject: O=C(O)c1ccc(CN2C(=O)/C(=C/c3cccc(Oc4ccccc4)c3)S/C2=N\c2ccc(F)cc2)cc1 10

Field request: IC50 | item: O=C(O)c1ccc(CN2C(=O)/C(=C/c3cccc(OCCc4ccccc4)c3)SC2=S)cc1 1.9

Suppose we examine the molecule O=C(O)c1ccc(CN2C(=O)/C(=C/c3ccc(Oc4ccccc4)cc3)S/C2=N\c2ccc(F)cc2)cc1 ; what IC50 value has been reported? 5.1

Look at this molecule and give its reported IC50. O=C(O)c1ccc(CN2C(=O)/C(=C/c3ccc(OCc4ccccc4)cc3)S/C2=N\c2ccc(F)cc2)cc1 1.9
